Hey, just so you know, these numbers are from ChEMBL document CHEMBL1133679.

Assay: Cytotoxicity that caused a 50% reduction in absorbance at 490 nm in human prostate cancer HTB-81 cells using MTS assay.
Format: functional, cell-based
Conditions: Homo sapiens, HTB-81
pEC50: −log10 of the molar value.
Would you please tag the item condition met when its pEC50 is 5 or above, and condition not met when it is below?

Record excerpt, results attached:
C=C[C@]1(CO)OC(n2ccc(=O)c3c(N)ncnc32)[C@H](O)[C@@H]1O (stereo partly drawn) = condition not met
C[C@]1(O)C(n2ccc(=O)c3c(N)ncnc32)O[C@H](CO)[C@H]1O (stereo partly drawn) = condition not met
C=CC[C@@H](O)[C@H]1OC(n2ccc(=O)c3c(N)ncnc32)[C@H](O)[C@@H]1O (stereo partly drawn) = condition not met
N#Cc1cn([C@@H]2O[C@H](CO)[C@@H](O)[C@H]2O)c2ncnc(N)c12 [TOYOCAMYCIN] = condition met
CC[C@@H](O)[C@H]1O[C@@H](n2ccc(=O)c3c(N)ncnc32)[C@H](O)[C@@H]1O.CC[C@H](O)[C@H]1O[C@@H](n2ccc(=O)c3c(N)ncnc32)[C@H](O)[C@@H]1O (mixture of isomers) = condition not met

Is pEC50 at least 5? Consider CCC[C@@H](O)[C@H]1OC(n2ccc(=O)c3c(N)ncnc32)[C@H](O)[C@@H]1O (stereo partly drawn) condition not met

Is pEC50 at least 5? Consider CC[C@]1(CO)OC(n2ccc(=O)c3c(N)ncnc32)[C@H](O)[C@@H]1O (stereo partly drawn) condition not met

Is pEC50 at least 5? Consider C#C[C@]1(O)C(n2ccc(=O)c3c(N)ncnc32)O[C@H](CO)[C@H]1O (stereo partly drawn) condition not met

Is pEC50 at least 5? Consider C[C@]1(CO)OC(n2ccc(=O)c3c(N)ncnc32)[C@H](O)[C@@H]1O (stereo partly drawn) condition not met

Is pEC50 at least 5? Consider C#C[C@@H](O)[C@H]1O[C@@H](n2ccc(=O)c3c(N)ncnc32)[C@H](O)[C@@H]1O.C#C[C@H](O)[C@H]1O[C@@H](n2ccc(=O)c3c(N)ncnc32)[C@H](O)[C@@H]1O (mixture of isomers) condition met

Is pEC50 at least 5? Consider Nc1ncnc2c1c(=O)ccn2[C@H]1C[C@@H](O)[C@@H](CO)O1 condition not met

Is pEC50 at least 5? Consider Nc1ncnc2c1c(=O)ccn2C1O[C@H](CO)[C@H](O)[C@H]1O (stereo partly drawn) condition met

====

Test: Cytotoxicity that caused a 50% reduction in absorbance at 490 nm in human prostate cancer HTB-81 cells using MTS assay.
Type: functional, cell-based
Conditions: Homo sapiens, HTB-81
Recorded metric: EC50 (µM)
Give the value, in units of µM, as a plain number.

Record excerpt, results attached:
N=c1ncn(C2O[C@H](CO)[C@@H](O)[C@H]2O)c2nccc(O)c12 (stereo partly specified) = 7.3
COc1cccc2c1C(=O)c1c(O)c3c(c(O)c1C2=O)C[C@@](O)(C(C)=O)C[C@@H]3O[C@H]1C[C@H](N)[C@H](O)[C@H](C)O1 = 0.058
Nc1ncnc2c1c(=O)ccn2C1CCC(CO)O1 (stereo unspecified) = 43.3

What value of EC50 has been recorded for this entry: Nc1ncnc2c1c(=O)ccn2[C@@H]1O[C@H](CO)C[C@H]1O 2.6

What value of EC50 has been recorded for this entry: Nc1ncnc2c1c(=O)ccn2[C@H]1C[C@H](O)[C@@H](CO)O1 3.9
